Target: T1, recombinant dog Aggrecan G1-IGD-G2 (dog, UniProt Q28343 20-693, limits assumed)
T1 construct: also called Dog G1-IGD-G2
Assay: periplasmic extract ELISA

BINDER | UNIT_LABEL | OD 450 nm
C0101PMP115B08 (VHH, Tested as E. coli periplasmic extract; not shown: FLAG3 and His6 tags (phagemid pAX212)) VHH: KVQLVESGGGLVQPGGSLRLSCAASGFTFSMYAMKWVRQAPGKGLEWVSGINSSGGRTNYAGSVKGRFTISRDNAKNTLYLQMNSLKPEDTAVYYCATDFLGGRNSRGQGTQVTVSS | OD 450 nm | 1.8
C0101PMP112A03 (VHH, Tested as E. coli periplasmic extract; not shown: FLAG3 and His6 tags (phagemid pAX212)) VHH: EVQLVESGGGLVQPGGSLRLSCAASGSIFSNRFMYWYRQAPGKQRELVASITLSGSTNYADSVKGRFTISRDNAKNTVYLQMNSLKPEDTAVYYCNTFLQNSFYWGQGTQVTVSS | OD 450 nm | 1.47
C0101PMP608A05 (VHH, Tested as E. coli periplasmic extract; not shown: FLAG3 and His6 tags (phagemid pAX212)) VHH: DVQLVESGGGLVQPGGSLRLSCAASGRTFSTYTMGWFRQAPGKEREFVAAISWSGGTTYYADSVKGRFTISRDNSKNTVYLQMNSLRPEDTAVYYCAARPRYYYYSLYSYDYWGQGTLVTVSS | OD 450 nm | 0.86
C0101PMP604F02 (VHH, Tested as E. coli periplasmic extract; not shown: FLAG3 and His6 tags (phagemid pAX212)) VHH: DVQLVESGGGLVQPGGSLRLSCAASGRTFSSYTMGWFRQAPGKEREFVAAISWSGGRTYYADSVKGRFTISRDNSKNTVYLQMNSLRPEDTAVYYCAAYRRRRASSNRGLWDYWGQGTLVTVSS | OD 450 nm | 1.04
C0101PMP604G09 (VHH, Tested as E. coli periplasmic extract; not shown: FLAG3 and His6 tags (phagemid pAX212)) VHH: DVQLVESGGGLVQPGGSLRLSCVASGRTFSSYAMGWFRQAPGKEREFVAAITWSSATTYYADSVKGRFTISRDNSKNTVYLQMNSLRPEDTAVYYCAAARIPVGRRSENWDYWGQGTLVTVSS | OD 450 nm | 1.16
C0101PMP117D05 (VHH, Tested as E. coli periplasmic extract; not shown: FLAG3 and His6 tags (phagemid pAX212)) VHH: KVQLVESGGGLVQAGGSLRLSCAASRRTFNMMGWFRQAPGKEREFVAYITWNGGDTRYAESVKGRFTVSRDDVKNTMALQMNRLDPLDTAVYYCGVRIHGSNWSTKADDYDNWGQGTQVTVSS | OD 450 nm | 1.53
C0101PMP601D02 (VHH, Tested as E. coli periplasmic extract; not shown: FLAG3 and His6 tags (phagemid pAX212)) VHH: DVQLVESGGGLVQPGGSLRLSCAASGPTFSRYAMGWFRQAPGKEREFVAAITWSSGGRTYYADSVKGRFTISRDNSKNTVYLQMNSLRPEDTAVYYCAAARIPVRTYTSEWNYWGQGTLVTVSS | OD 450 nm | 2.58
C0101PMP113A01 (VHH, Tested as E. coli periplasmic extract; not shown: FLAG3 and His6 tags (phagemid pAX212)) VHH: EVQLVESGGGLVQPGGSLRLSCSASGFTFSGSWMFWVRQAPGKDYEWVASINSSGGRTYYDDSVKGRFTISRDSAKNTLYLEMNNLKPEDTALYFCARSPRVGSWGQGTQVTVSS | OD 450 nm | 2.51
